So I've got a bunch of compounds here, and I need their EC50 values.
tested on: HBV viral production from HepAD38 cells; assay: Activity of test compounds on viral production from HepAD38 cells (viral load by qPCR of HBV core sequence in supernatant); type: cell-based; conditions: Hepatitis B virus, 120 h, 5 days incubation, HBV DNA in supernatant by qPCR, top concentration 10 μM, read-out: Viral Load EC50 Activity range

# query: EC50 | item CC(C)(C)OCCN1C(C(=O)Nc2ccc(F)c(Cl)c2)CC(c2nccs2)NS1(=O)=O (racemic) | system: HBV viral production from HepAD38 cells
1000 to 5000 nM

# query: EC50 | item CN1[C@@H](C(=O)Nc2ccc(F)c(Cl)c2)C[C@@H](c2cc(-c3cccs3)cs2)NS1(=O)=O | system: HBV viral production from HepAD38 cells
< 1000 nM

# query: EC50 | item [2H]C([2H])([2H])N1C(C(=O)Nc2ccc(F)c(Cl)c2)CC(c2ccc(-c3cn(C([2H])([2H])[2H])cn3)s2)NS1(=O)=O (stereo not drawn) | system: HBV viral production from HepAD38 cells
< 1000 nM

# query: EC50 | item CN1[C@@H](C(=O)Nc2ccc(F)c(Cl)c2)C[C@@H](c2cc(-c3ccc(F)cn3)cs2)NS1(=O)=O (stereo in doubt) | system: HBV viral production from HepAD38 cells
> 5000 nM

# query: EC50 | item CN1C(C(=O)Nc2ccc(F)c(Cl)c2)CC(c2cccc(O)c2)NS1(=O)=O (stereo not drawn) | system: HBV viral production from HepAD38 cells
< 1000 nM

# query: EC50 | item CN1[C@H](C(=O)Nc2ccc(F)c(Cl)c2)C[C@H](c2ncc(-c3ccn(C)n3)s2)NS1(=O)=O (stereo in doubt) | system: HBV viral production from HepAD38 cells
1000 to 5000 nM

====

So I've got a bunch of compounds here, and I need their EC50 values.
tested on: HBV viral production from HepAD38 cells; test: Activity of test compounds on viral production from HepAD38 cells (viral load by qPCR of HBV core sequence in supernatant); format: cell-based; conditions: Hepatitis B virus, 120 h, 5 days incubation, HBV DNA in supernatant by qPCR, top concentration 10 μM, read-out: Viral Load EC50 Activity range

// returns reported EC50 for input CN1[C@H](C(=O)Nc2ccc(F)c(Cl)c2)C[C@H](c2ccc(-c3cnco3)s2)NS1(=O)=O [HBV-CSU-269-ISO-I]
< 1000 nM

// returns reported EC50 for input [2H]C([2H])([2H])N1[C@H](C(=O)Nc2ccc(F)c(Cl)c2)C[C@H](c2ccc(-c3cn(C)cn3)s2)NS1(=O)=O [HBV-CSU-373-ISO-I]
< 1000 nM

// returns reported EC50 for input [2H]C1C([2H])(c2ccc(Br)s2)NS(=O)(=O)N(C)C1([2H])C(=O)Nc1ccc(F)c(Cl)c1 (centres unmarked) [HBV-CSU-371]
< 1000 nM

// returns reported EC50 for input CN1[C@@H](C(=O)Nc2ccc(F)c(Cl)c2)C[C@@H](c2ncc(-c3ccn(C)n3)s2)NS1(=O)=O (stereo in doubt) [HBV-CSU-280-ISO-II]
< 1000 nM

// returns reported EC50 for input CN1C(C(=O)Nc2ccc(F)c(Cl)c2)CC(c2cc(-c3ccc(NS(C)(=O)=O)cc3)cs2)NS1(=O)=O (centres unmarked) [HBV-CSU-171]
< 1000 nM

// returns reported EC50 for input [2H]C([2H])([2H])N1[C@H](C(=O)Nc2ccc(F)c(Cl)c2)C[C@H](c2ncc(-c3cn(C)cn3)s2)NS1(=O)=O [HBV-CSU-338-ISO-I]
< 1000 nM

// returns reported EC50 for input CN1[C@@H](C(=O)Nc2ccc(F)c(Cl)c2)C[C@@H](c2ccc(C(=O)O)cc2)NS1(=O)=O [HBV-CSU-218-ISO-II]
1000 to 5000 nM

// returns reported EC50 for input CN1[C@H](C(=O)Nc2ccc(F)c(Cl)c2)C[C@H](c2ccc(-c3cncnc3)s2)NS1(=O)=O [HBV-CSU-272-ISO-I]
< 1000 nM

// returns reported EC50 for input CN1C(C(=O)Nc2ccc(F)c(Cl)c2)CC(c2nccs2)NS1(=O)=O (racemic) [HBV-CSU-027]
< 1000 nM

// returns reported EC50 for input CN1C(C(=O)Nc2ccc(F)c(Cl)c2)CC(c2ccc(-c3cncs3)s2)NS1(=O)=O (racemic) [HBV-CSU-268]
< 1000 nM

// returns reported EC50 for input CN(C)CCN1C(C(=O)Nc2ccc(F)c(Cl)c2)CC(c2nccs2)NS1(=O)=O (racemic) [HBV-CSU-074]
> 5000 nM

// returns reported EC50 for input COc1ccc(-c2csc(C3CC(C(=O)Nc4ccc(F)c(Cl)c4)N(C)S(=O)(=O)N3)c2)cc1 (centres unmarked) [HBV-CSU-241]
< 1000 nM

// returns reported EC50 for input CN1C(C(=O)Nc2ccc(F)c(Cl)c2)CC(c2cc(-c3cncn3C)cs2)NS1(=O)=O (racemic) [HBV-CSU-285]
< 1000 nM

// returns reported EC50 for input [2H]C([2H])([2H])N1[C@H](C(=O)Nc2ccc(F)c(Cl)c2)C[C@H](c2ccc(-c3cn(C([2H])([2H])[2H])cn3)s2)NS1(=O)=O (stereo in doubt) [HBV-CSU-374-ISO-I]
< 1000 nM

// returns reported EC50 for input CC(C)OCCN1C(C(=O)Nc2ccc(F)c(Cl)c2)CC(c2nccs2)NS1(=O)=O (centres unmarked) [HBV-CSU-143]
< 1000 nM

// returns reported EC50 for input CCc1sc(C2CC(C(=O)Nc3ccc(F)c(Cl)c3)N(C)S(=O)(=O)N2)cc1Br (centres unmarked) [HBV-CSU-334]
< 1000 nM

// returns reported EC50 for input [2H]C([2H])([2H])N1[C@@H](C(=O)Nc2ccc(F)c(Cl)c2)C[C@@H](c2ncc(Br)s2)NS1(=O)=O [HBV-CSU-336-ISO-II]
1000 to 5000 nM

From: patent US11078170B2
